Target: PKR R532W (Homo sapiens, UniProt P30613, R532W)
Sequence (P30613 whole entry R532W): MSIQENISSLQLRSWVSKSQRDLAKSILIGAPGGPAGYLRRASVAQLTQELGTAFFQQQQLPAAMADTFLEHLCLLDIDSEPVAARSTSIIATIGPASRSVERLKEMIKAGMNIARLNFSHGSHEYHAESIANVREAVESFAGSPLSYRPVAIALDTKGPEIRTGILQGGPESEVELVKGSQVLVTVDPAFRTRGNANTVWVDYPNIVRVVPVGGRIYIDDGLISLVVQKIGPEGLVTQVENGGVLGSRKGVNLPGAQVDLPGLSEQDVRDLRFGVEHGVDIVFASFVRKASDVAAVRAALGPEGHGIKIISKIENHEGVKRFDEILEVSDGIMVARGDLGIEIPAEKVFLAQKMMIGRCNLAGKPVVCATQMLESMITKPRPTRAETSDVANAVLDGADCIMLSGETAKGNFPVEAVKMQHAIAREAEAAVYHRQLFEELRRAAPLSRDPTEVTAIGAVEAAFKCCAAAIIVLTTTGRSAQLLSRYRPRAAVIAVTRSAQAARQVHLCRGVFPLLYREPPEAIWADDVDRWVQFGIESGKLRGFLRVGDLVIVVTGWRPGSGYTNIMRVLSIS
Experiment: PKR R532W Single Point Percent Activation Assay
Assay type: biochemical
Conditions: compound at 1 μM; read-out: % Act. R532W
readout.label: activation at 1 µM

// known answers, use as guide
| structure.string | assayed.system | measurement |
| --- | --- | --- |
| O=C(c1ccc(NS(=O)(=O)c2cccc3cccnc23)cc1)N1CC(O)C1 | PKR R532W (Homo sapiens, UniProt P30613, R532W) | 101 to 500% |
| CC(C)NC(=O)OC1CN(C(=O)c2ccc(NS(=O)(=O)c3cccc4cccnc34)cc2)C1 | PKR R532W (Homo sapiens, UniProt P30613, R532W) | 101 to 500% |
| Cc1cc(C(=O)N2CC(OC(=O)c3ccccn3)C2)ccc1NS(=O)(=O)c1cccc2cccnc12 | PKR R532W (Homo sapiens, UniProt P30613, R532W) | 1 to 100% |
| C=CCNC(=O)NC1CN(C(=O)c2ccc(NS(=O)(=O)c3cccc4cccnc34)c(OC)c2)C1 | PKR R532W (Homo sapiens, UniProt P30613, R532W) | 101 to 500% |

// `CC1(O)CN(C(=O)c2ccc(NS(=O)(=O)c3cccc4cccnc34)c(F)c2)C1` : activation at 1 µM value = 1 to 100%

###

# key: entry, value: AC50
Molecular target: PKR R510Q (Homo sapiens, UniProt P30613, R510Q)
Sequence (P30613 whole entry R510Q): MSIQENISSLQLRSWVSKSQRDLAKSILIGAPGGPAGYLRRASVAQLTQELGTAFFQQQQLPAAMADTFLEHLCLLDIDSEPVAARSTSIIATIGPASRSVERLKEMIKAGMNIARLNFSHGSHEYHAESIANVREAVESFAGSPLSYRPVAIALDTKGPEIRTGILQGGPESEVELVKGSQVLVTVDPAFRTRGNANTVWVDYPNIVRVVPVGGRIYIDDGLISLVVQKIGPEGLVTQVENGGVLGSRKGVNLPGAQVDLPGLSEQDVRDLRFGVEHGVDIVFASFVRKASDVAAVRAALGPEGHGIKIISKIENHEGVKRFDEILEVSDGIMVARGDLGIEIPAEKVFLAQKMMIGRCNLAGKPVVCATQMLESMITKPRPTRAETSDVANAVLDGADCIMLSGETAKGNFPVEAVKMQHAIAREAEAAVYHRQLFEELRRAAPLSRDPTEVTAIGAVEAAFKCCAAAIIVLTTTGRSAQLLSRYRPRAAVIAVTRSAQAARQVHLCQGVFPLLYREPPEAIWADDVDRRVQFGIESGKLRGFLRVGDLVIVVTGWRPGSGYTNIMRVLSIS
Assay: PKR Mutant Assay, AC50 (R510Q)
Type: biochemical
Protocol: • PKR or PKR mutant enzyme solution was diluted in assay buffer. • 2 μL of test compound was added into wells first, and then 180 μL reaction mix was added. • Reactions mixture with test compound was assembled except for ADP, and plates were stored for 60 minutes at room temperature. • 20 uL ADP was added to start reaction at room temperature and reaction progress was measured as changes in absorbance at 340 nm wavelength at room temperature. […]

Answered cases to consult:
| compound | AC50 |
| --- | --- |
| O=C(c1ccc(NS(=O)(=O)c2cccc3cccnc23)c(F)c1)N1CC(Nc2ccccc2)C1 [drawing 88] | > 500 nM |
| Cc1cc(C(=O)N2CC(NC(=O)c3ccccn3)C2)ccc1NS(=O)(=O)c1cccc2cccnc12 [drawing 73] | > 500 nM |
| O=C(c1ccc(NS(=O)(=O)c2cccc3cccnc23)cc1)N1CC(O)(Cc2ccccc2)C1 [drawing 71] | 101 to 500 nM |
| O=C(c1ccc(NS(=O)(=O)c2cccc3cccnc23)cc1)N1CC(O)(c2ccccc2)C1 [drawing 106] | > 500 nM |

What the record says about O=C(c1ccc(NS(=O)(=O)c2cccc3cccnc23)cc1)N1CC(Oc2ccccc2)C1 [drawing 70] : AC50 is > 500 nM

Entry COc1ccccc1OC1CN(C(=O)c2ccc(NS(=O)(=O)c3cccc4cccnc34)c(C)c2)C1 [drawing 129] — recorded AC50 = > 500 nM

According to the records, this compound Cc1cc(C(=O)N2CC(Nc3ccccn3)C2)ccc1NS(=O)(=O)c1cccc2cccnc12 [drawing 121] displays AC50 of 101 to 500 nM

The compound identified as O=C(Nc1ccccn1)OC1CN(C(=O)c2ccc(NS(=O)(=O)c3cccc4cccnc34)cc2)C1 [drawing 131] registered its AC50 at > 500 nM

Notebook: Cc1cc(C(=O)N2CC(Oc3ccccc3)C2)ccc1NS(=O)(=O)c1cccc2cccnc12 [drawing 76] , AC50 read as 101 to 500 nM
